test system: VDR:RXRa (NR concentration 270 nM, RXRa partner concentration 90 nM); assay: PBM binding z-score (relative to random genomic background probes); higher = stronger binding; sequences stand for … in GC…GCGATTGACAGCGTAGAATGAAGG
// PBM binding z-score lookup, one value per entry

# Entry sequence, PBM binding z-score
data = [
    ("CCTACTGGGGCACGAAAGGTCATTGATTCAGTGA", 4.61),
    ("ATCGAAAGGTCGTGACGTGAGTATACAGAAAGGC", 3.03),
    ("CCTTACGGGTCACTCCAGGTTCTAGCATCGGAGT", 3.59),
    ("CGTCAAAGTTCAAGCTAACGTAACAGAAAGCAGC", 4.18),
    ("GCTGCTAGGTCAGGTTGGTCTGCTAACGGGTACG", 0.509),
    ("CTATGTAGATTAAGGGGGTCATTCAGTTTGAAAG", 6.53),
    ("GCTGCTAGGTTAACTGATGGTCAGCTAAAGCTCG", -0.182),
    ("TCTAGTTGGTCACGGAGGTCACACGCGACGGGTA", 5.87),
    ("CTATGTATGTTAAGGGGGTCATTCAGTTTGAAAG", 6.64),
    ("ATCTAAAGGTCGAAGGTGAGTATACCCACCCGAA", 2.95),
    ("TCTCGGATGACACGAAAGGTCAGAGCTCGACATC", 2.94),
]

====

test system: VDR homodimer (NR concentration 270 nM); experiment: PBM binding z-score (relative to random genomic background probes); higher = stronger binding; sequences stand for … in GC…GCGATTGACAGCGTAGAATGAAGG

# Entry sequence, PBM binding z-score
rows = [
    ("ATCGAAAGGTCGAAGGTGACTATACCCACCCGAA", 0.592),
    ("CGAACTAGGTCACCAGGACACTGAAGAGGTTGGA", 0.607),
    ("CCTAGTTGGTCAAGCTCACACACGCTATAGGTAC", 0.614),
]

====

test system: PPARg:RXRa IVT, anti-PPARg (NR concentration 270 nM, RXRa partner concentration 90 nM); assay: PBM binding z-score (relative to random genomic background probes); higher = stronger binding; sequences stand for … in GC…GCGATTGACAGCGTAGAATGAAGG

# Entry sequence, PBM binding z-score
records = [
    ("ATCCAAAGGTCGAGGTGAGTATAGAGAAAGGGAA", 2.87),
    ("CCAACTAGGTCACCAGGACAGTGAAGAGGTTGGA", 8.26),
    ("ATATGTAGGTTAGGGTCGTTCAGAAAGTAGGGAA", 6.47),
    ("CGTCCAAGGTCAGAGAGGTCAGTGTATGCCGAGT", 3.39),
    ("AGAATGAGGTTACCAAAGATCAGTGAAACGCTTG", 3.2),
    ("CTATGTAGGTTAAGGAGGTCATTCAGTTTGAAAG", 7.07),
    ("TCGAGTAGGTTACGAGGGCATTCAGGGATGAAGA", 4.89),
    ("CCGAGTCGGTTACGAGGGGGCATTCAGTGCGAAT", 0.806),
    ("CTATGTAGCTTAAGGGGGTCATTCAGTTTGAAAG", 4.78),
    ("CGAACTAGGTTAAAGGACAGTGAAAGGCGACGTA", 6.45),
    ("TCATATAGGTAAAAGGTCAAAGTCGGTGTGGTAA", 6.93),
    ("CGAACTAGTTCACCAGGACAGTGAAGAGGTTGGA", 1.11),
    ("CCTTACGGGTCACTCCATGTTATAGCATCGGAGT", 3.12),
    ("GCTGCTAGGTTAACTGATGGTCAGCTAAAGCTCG", 1.36),
    ("CCTACTGGGCCATTGAGAGGTCATTGATCATATG", 3.95),
    ("CCTAGCAGGCCAATCGGGGTCACTCAAGGCTTGA", 3.14),
    ("GGTACGAGGGCAAAGTTGATAGCATCTGTCGACG", 3.4),
    ("ATCTGTAGGTTAGGGTCATTCAGAAAGTAGGGAA", 3.74),
    ("CATACAGGGTCCGCTAGGCCAGAGTAGGGACGGC", -0.128),
    ("CAAACTAGGTCAAGGGGTCAAAGTCCGCTTCCCG", 8.72),
    ("ATATGTAGGTTAGGGTCATACAGAAAGTAGGGAA", 6.88),
    ("AGTCAAAGTTCAGGACGAGGTCACGTAAAGCACG", 3.73),
    ("GATCCAGGGTCAGCTAGAGGCCAGAGTATGGAAA", 1.96),
    ("CGTCCAAGGTCATAAGAGGTCAGTGAAGACAGAT", 4.2),
    ("CCTAGTAGGTTATGGGGCATTCAGGCAACGGTGA", 5.34),
]

====

tested on: PPARg:RXRa IVT, anti-PPARg (NR concentration 270 nM, RXRa partner concentration 90 nM); experiment: PBM binding z-score (relative to random genomic background probes); higher = stronger binding; sequences stand for … in GC…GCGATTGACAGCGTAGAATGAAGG
Class (required): determined from PBM binding z-score; valid ranges are I (below 4), II (4 to below 8), III (8 or more)

# Entry sequence, Cat
measured = [
    ("CCGAGTAGGTTACGAGGGGGCATACAGTGCGAAT", "II"),
    ("TAGCCAAGGTCAGATCGGGCCAGTATACGCTATA", "I"),
    ("ATCGAAAGGTCGACGAGGTGAGTATGCACCGTTT", "I"),
    ("CGAACTAGGTCACCAGGATAGTGAAGAGGTTGGA", "III"),
    ("CTCGAAAGGTCGGTTGAGGTGACTATACGGATAA", "I"),
    ("TCGAGTAGGTTGCGGGGGCATTCAGGGATGAAGA", "I"),
    ("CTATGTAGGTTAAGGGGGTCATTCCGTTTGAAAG", "II"),
    ("CCTAGTGGGCCAAAGGTCATTGATTCCAATGCTC", "II"),
    ("CGTCAAAGTTAAAGGTAACGTAACAGAAAGCAGC", "I"),
    ("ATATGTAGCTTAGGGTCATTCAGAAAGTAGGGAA", "I"),
    ("GGAACGAGGGCAAAGGTGATAGCATCTGTCGACG", "II"),
    ("TAGCATAGGTCATGCGGGCCAGTATAGTGTCGGC", "I"),
    ("ATCTCTAGGTAAAGGTCAGTGAAAGATCGATAGA", "II"),
    ("TCGAGTAGGTTACCGGGGCATTCAGGGATGAAGA", "II"),
    ("CGAACTAGGTCACCAGGCCAGTGAAGAGGTTGGA", "III"),
    ("CTATGTAGGTTAAGGGGGTCATCCAGTTTGAAAG", "II"),
    ("CCTTACGGGTCACGGGGTTATAGCACGACGAGCG", "II"),
    ("CGAACTAGGTCAAAGGACAGTGAGAGGCGACGTA", "III"),
    ("CCGACTGGGGCAAAGGTTACCATGCTCAGTACGA", "II"),
]

====

This listing pairs sequences with measured PBM binding z-score.
test system: PPARg DBDmut:RXRa IVT, anti-PPARg (DBD mutation: PPARg1 K132A/R137A, NR concentration 270 nM, RXRa partner concentration 90 nM); test: PBM binding z-score (relative to random genomic background probes); higher = stronger binding; sequences stand for … in GC…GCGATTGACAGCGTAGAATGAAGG

# Entry sequence, PBM binding z-score
measured = [
    ("CGTCCAAGGTCAGCAGGTCACTGAAAGCGACGTG", 0.394),
    ("TTACCAAGGTAAAAGGTCGTTGATGCACGCCTTG", 0.399),
    ("ACTAGTGGGTCAGCTGAGGTCACACACAATTCGG", 1.71),
    ("TCTGCTGGGTCAACGATGGTCAGCTAATCTGCTA", 1.06),
    ("CAAACTAGGTCACCGGAAGGTCAAAGTTCGCATG", 4.1),
    ("CAATCTAGGTCACAGAGGTCAAAGTCCGTGCGTA", 7.18),
    ("CCTACTGGGCGACGAAAGGTCATTGATTCAGTGA", -0.823),
    ("CCTTACGGGTCGCTGACAGGTTATAGCATTTGGA", -0.356),
    ("TCTTGTAGATCAAAGCTTAAGAAAGCCGAAGCCT", -0.031),
    ("CGAACTAGGTAAAGGACAGTGAATCTCCGCACGC", 0.46),
    ("CCTTACAGGTCAAGGTTATAGCACGGGTGGTACG", 0.977),
    ("ATCGAAAGGTCGAGGAGGTGAGTATACACCGTTT", 1.49),
]
